We begin with a simple list: items and their reported viability, T/C.
System: IGROV1 complex spheroids (HUVEC, MSC), viability % test/control
method-description: Anticancer human tumor IGROV1 cell line growth inhibition [GQUAD];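 note: spheroids exposed to compounds for 7 days before readout; 100% = DMSO vehicle control viability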
experimental-setup: second compound 0.0316 µM; first compound 0.316 µM; active compounds read low
Number in %, nothing else.

compound="CC1COCCN1c1cc(-c2ccnn2C)c2ccnc(-c3ccn[nH]3)c2n1 (centres undefined) + Cc1[nH]c2ccc(F)cc2c1-c1nc2c3cccnc3c3ncccc3c2[nH]1" recorded_metric="viability, T/C" readout_unit=% numeric_readout=13.1
compound="CCc1c2c(nc3ccc(O)cc13)-c1cc3c(c(=O)n1C2)COC(=O)[C@]3(O)CC + CN(C)c1ccc(Nc2c3ccc(NC(=O)CCN4CCCC4)cc3nc3cc(NC(=O)CCN4CCCC4)ccc23)cc1" recorded_metric="viability, T/C" readout_unit=% numeric_readout=1.54
compound="COc1cccc2c1C(=O)c1c(O)c3c(c(O)c1C2=O)CC(O)(C(=O)CO)CC3OC1CC(N)C(O)C(C)O1 (centres undefined) + CN(C)c1ccc(Nc2c3ccc(NC(=O)CCN4CCCC4)cc3nc3cc(NC(=O)CCN4CCCC4)ccc23)cc1" recorded_metric="viability, T/C" readout_unit=% numeric_readout=9.86

As a next step, examine the compound that follows.
Enquiry: Look up viability, T/C: Nc1ccn(C2OC(CO)C(O)C2(F)F)c(=O)n1 (centres undefined) + Cc1[nH]c2ccc(F)cc2c1-c1nc2c3cccnc3c3ncccc3c2[nH]1
Return: 5.85
